# measurementTarget: Carbonic anhydrase 2 (Homo sapiens)
# procedureSummary: Inhibition of recombinant human carbonic anhydrase 2 assessed as inhibition constant preincubated with enzyme for 10 mins by phenol red dye based stopped flow CO2 hydration assay
Exercise: for every item that follows, state its recorded Ki.

Solved entries:
> print(dat)
                                inputsmiles                    measurementtarget  measuredendpoint  reportedvalue
1  O=C(/C=C/c1cc(Cl)cc(Cl)c1)Nc1ccc2oc(=O)ccc2c1  Carbonic anhydrase 2 (Homo sapiens)                Ki        > 10 µM
2  O=C(/C=C/c1ccc(F)cc1)Nc1ccc2oc(=O)ccc2c1  Carbonic anhydrase 2 (Homo sapiens)                Ki        > 10 µM
3  O=C(/C=C/c1ccc(F)c(F)c1)Nc1ccc2oc(=O)ccc2c1  Carbonic anhydrase 2 (Homo sapiens)                Ki        > 10 µM
4  Cc1cc(=O)oc2cc(NC(=O)/C=C/c3ccccc3OC(F)F)ccc12  Carbonic anhydrase 2 (Homo sapiens)                Ki        > 10 µM

Dear reader, for each entry below, please note its Ki.
1. COc1ccc(/C=C/C(=O)Nc2ccc3c(C)cc(=O)oc3c2)cc1OC
2. COc1ccc(/C=C/C(=O)Nc2ccc3oc(=O)ccc3c2)cc1
3. COc1ccc(/C=C/C(=O)Nc2ccc3c(c2)C=CS(=O)(=O)O3)c(F)c1
4. O=C(/C=C/c1ccc(C(F)(F)F)cc1)Nc1ccc2oc(=O)ccc2c1

1: > 10 µM; 2: > 10 µM; 3: > 10 µM; 4: > 10 µM

Dear reader, for each entry below, please note its Ki.
1. COc1ccc(/C=C/C(=O)Nc2ccc3oc(=O)ccc3c2)c(F)c1
2. COc1cc(/C=C/C(=O)Nc2ccc3c(C)cc(=O)oc3c2)cc(OC)c1OC
3. O=C(/C=C/c1ccccc1OC(F)F)Nc1ccc2oc(=O)ccc2c1
4. O=C(/C=C/c1ccccc1)Nc1ccc2oc(=O)ccc2c1
5. COc1ccc(/C=C/C(=O)Nc2ccc3oc(=O)ccc3c2)cc1OC
6. COc1ccc(/C=C/C(=O)Nc2ccc3oc(=O)ccc3c2)c(OC)c1
7. N#Cc1ccc(/C=C/C(=O)Nc2ccc3c(c2)C=CS(=O)(=O)O3)cc1
8. O=C(/C=C/c1cccc(F)c1)Nc1ccc2oc(=O)ccc2c1

> 10 µM
> 10 µM
> 10 µM
> 10 µM
> 10 µM
> 10 µM
> 10 µM
> 10 µM

Dear reader, for each entry below, please note its Ki.
1. O=C(/C=C/c1cccc(C(F)(F)F)c1)Nc1ccc2oc(=O)ccc2c1
2. Cc1cc(=O)oc2cc(NC(=O)/C=C/c3ccc(C#N)cc3)ccc12
3. O=C(/C=C/c1ccc(Cl)cc1)Nc1ccc2oc(=O)ccc2c1

1: > 10 µM; 2: > 10 µM; 3: > 10 µM

Dear reader, for each entry below, please note its Ki.
1. COc1cc(/C=C/C(=O)Nc2ccc3c(c2)C=CS(=O)(=O)O3)cc(OC)c1OC
2. Cc1cc(=O)oc2cc(NC(=O)/C=C/c3cccc(F)c3)ccc12
3. O=C(/C=C/c1cccc([N+](=O)[O-])c1)Nc1ccc2oc(=O)ccc2c1

["> 10 µM", "> 10 µM", "> 10 µM"]

====

# measurementTarget: Carbonic anhydrase 9 (Homo sapiens)
# procedureSummary: Inhibition of recombinant human carbonic anhydrase 9 assessed as inhibition constant preincubated with enzyme for 10 mins by phenol red dye based stopped flow CO2 hydration assay
Exercise: for every item that follows, state its recorded pKi.
Give bare numbers, as −log10 of the molar value.

Solved entries:
> print(dat)
                                inputsmiles  reportedvalue
1  Cc1cc(=O)oc2cc(NC(=O)/C=C/c3ccccc3OC(F)F)ccc12           6.31
2  N#Cc1ccc(/C=C/C(=O)Nc2ccc3c(c2)C=CS(=O)(=O)O3)cc1           7.40
3  Cc1cc(=O)oc2cc(NC(=O)/C=C/c3ccc(F)cc3)ccc12           6.17

Shifting focus to the compound that follows.
Reported pKi of `COc1ccc(/C=C/C(=O)Nc2ccc3c(c2)C=CS(=O)(=O)O3)c(F)c1` : 7.09

====

Exercise: for every item that follows, state its recorded Ki.
# measurementTarget: Carbonic anhydrase 12 (Homo sapiens, UniProt O43570)
# Sequence (O43570 whole entry): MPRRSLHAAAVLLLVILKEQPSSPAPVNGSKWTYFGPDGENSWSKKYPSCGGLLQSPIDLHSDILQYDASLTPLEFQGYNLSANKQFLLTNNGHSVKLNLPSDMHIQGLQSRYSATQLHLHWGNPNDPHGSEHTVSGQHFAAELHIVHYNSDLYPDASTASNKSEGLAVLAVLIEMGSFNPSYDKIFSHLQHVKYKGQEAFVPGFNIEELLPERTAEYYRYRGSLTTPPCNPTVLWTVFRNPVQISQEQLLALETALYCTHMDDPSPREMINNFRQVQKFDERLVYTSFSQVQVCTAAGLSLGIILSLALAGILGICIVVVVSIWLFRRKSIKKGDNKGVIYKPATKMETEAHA
# procedureSummary: Inhibition of recombinant human carbonic anhydrase 12 assessed as inhibition constant preincubated with enzyme for 10 mins by phenol red dye based stopped flow CO2 hydration assay
Give bare numbers, in nM.

> print(dat)
                                inputsmiles                         measurementtarget  measuredendpoint  reportedvalue
1  O=C(/C=C/c1ccc(F)cc1)Nc1ccc2c(c1)C=CS(=O)(=O)O2  Carbonic anhydrase 12 (Homo sapiens, UniProt O43570)                Ki            506

Dear reader, for each entry below, please note its Ki.
1. Cc1cc(=O)oc2cc(NC(=O)/C=C/c3ccccc3OC(F)F)ccc12
2. Cc1cc(=O)oc2cc(NC(=O)/C=C/c3ccc(F)c(F)c3)ccc12

1. 567
2. 699

====

Exercise: for every item that follows, state its recorded Ki.
# measurementTarget: UniProtKB O43570
# procedureSummary: Inhibition of recombinant human carbonic anhydrase 12 assessed as inhibition constant preincubated with enzyme for 10 mins by phenol red dye based stopped flow CO2 hydration assay
One number for each entry, in nM.

Solved entries:
> print(dat)
                                inputsmiles  measurementtarget  measuredendpoint  reportedvalue
1  COc1ccc(/C=C/C(=O)Nc2ccc3oc(=O)ccc3c2)c(OC)c1   UniProtKB O43570                Ki            446
2  Cc1cc(=O)oc2cc(NC(=O)/C=C/c3ccccc3)ccc12   UniProtKB O43570                Ki            649
3  O=C(/C=C/c1ccc(F)cc1)Nc1ccc2oc(=O)ccc2c1   UniProtKB O43570                Ki            265
4  Cc1cc(=O)oc2cc(NC(=O)/C=C/c3ccc(F)cc3)ccc12   UniProtKB O43570                Ki            604
5  N#Cc1ccc(/C=C/C(=O)Nc2ccc3oc(=O)ccc3c2)cc1   UniProtKB O43570                Ki            760
6  Cc1cc(=O)oc2cc(NC(=O)/C=C/c3ccc(C#N)cc3)ccc12   UniProtKB O43570                Ki            575
7  O=C(/C=C/c1ccccc1OC(F)F)Nc1ccc2c(c1)C=CS(=O)(=O)O2   UniProtKB O43570                Ki            349
8  N#Cc1ccc(/C=C/C(=O)Nc2ccc3c(c2)C=CS(=O)(=O)O3)cc1   UniProtKB O43570                Ki            520

Dear reader, for each entry below, please note its Ki.
1. Cc1cc(=O)oc2cc(NC(=O)NS(=O)(=O)c3ccc(F)cc3)ccc12
2. O=C(/C=C/c1cccc(C(F)(F)F)c1)Nc1ccc2oc(=O)ccc2c1
3. COc1ccc(/C=C/C(=O)Nc2ccc3oc(=O)ccc3c2)c(F)c1
4. O=C(/C=C/c1ccccc1)Nc1ccc2oc(=O)ccc2c1
5. Cc1cc(=O)oc2cc(NC(=O)/C=C/c3cccc(F)c3)ccc12

[1.8, 221, 137, 829, 539]

Reported Ki of `COc1ccc(/C=C/C(=O)Nc2ccc3c(C)cc(=O)oc3c2)c(F)c1` : 847
